# study system: PfDHODH (Plasmodium falciparum, UniProt Q08210)
# Sequence (Q08210 24-569): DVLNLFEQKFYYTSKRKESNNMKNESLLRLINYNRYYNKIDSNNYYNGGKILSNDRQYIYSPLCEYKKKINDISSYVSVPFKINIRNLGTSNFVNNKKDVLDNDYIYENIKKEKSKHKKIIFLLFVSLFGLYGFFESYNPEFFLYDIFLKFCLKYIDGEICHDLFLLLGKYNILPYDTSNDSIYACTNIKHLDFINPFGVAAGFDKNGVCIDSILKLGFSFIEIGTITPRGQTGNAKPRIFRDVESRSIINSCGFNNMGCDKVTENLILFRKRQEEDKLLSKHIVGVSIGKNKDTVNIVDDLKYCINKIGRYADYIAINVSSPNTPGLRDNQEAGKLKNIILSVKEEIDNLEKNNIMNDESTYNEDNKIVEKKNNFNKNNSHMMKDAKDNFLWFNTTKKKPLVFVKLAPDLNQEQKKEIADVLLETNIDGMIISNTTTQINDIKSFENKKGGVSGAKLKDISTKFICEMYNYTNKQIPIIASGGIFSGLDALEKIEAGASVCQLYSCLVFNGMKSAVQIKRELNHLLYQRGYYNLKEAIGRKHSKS
# test name: biochemical
# stated conditions: Table 5; read-out: PfDHODH IC50
measured property: IC50 (µM)
Numbers only here, please. The scale is µM.

Give recorded IC50 with PfDHODH (Plasmodium falciparum, UniProt Q08210) for the following molecule: CCc1nc2nc(C)cc(Nc3cccc(C(F)(F)F)c3)n2n1 1.17

And the next one, Cc1cc(Nc2ccc(Cl)c(Cl)c2)n2nc(C)nc2n1 ? 0.0752

And the next one, Cc1nc2nc(C)c(Cl)c(Nc3ccc(C(F)(F)F)cc3)n2n1 ? 0.62

And the next one, CCCc1nc2nc(C)cc(Nc3cccc(Cl)c3)n2n1 ? 0.247

And the next one, CCCc1nc2nc(C)cc(Nc3ccc(C)c(F)c3)n2n1 ? 0.277

And the next one, Cc1nc2nc(C)c(C)c(Nc3ccc(C(F)(F)F)cc3)n2n1 ? 3

And the next one, Cc1cc(Nc2cccc(C(F)(F)F)c2)n2nc(C)nc2n1 ? 0.285

And the next one, Cc1cc(Nc2ccc(Br)c(C)c2)n2nc(C)nc2n1 ? 0.0706

And the next one, COc1ccc(Nc2cc(C)nc3ncnn23)cc1Cl ? 0.362

And the next one, C#Cc1ccc(Nc2cc(C)nc3ncnn23)cc1 ? 0.99

Every entry's value here was drawn from patent US9216983B2.
